As shown below, each of these sequences has a reported PBM binding z-score value.
# Test system: PPARg:RXRa DBDmut IVT, anti-RXR (DBD mutation: RXRa K156A/R161A, NR concentration 270 nM, RXRa partner concentration 90 nM)
# Experiment description: PBM binding z-score (relative to random genomic background probes); higher = stronger binding; sequences stand for … in GC…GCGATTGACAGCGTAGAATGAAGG
Observable: PBM binding z-score

INSERT INTO results (biosequence, experimental_value) VALUES
  ('AGTCAAAATTCACTAGGTAACGTAAGATTCAGCT', 1.45),
  ('GATACAGGGTCAAGGCCAGAATACGCGTATTGAT', 2.36),
  ('ATATGAAGGTTAGGGTCATTCAGAAAGTAGGGAA', 1.38),
  ('TCAAGTAGGTTACGGGGGCATTCAGGGATGAAGA', 6.98),
  ('TCTAGTTGGTCACGGAGGTCACACGCGACGGGTA', 2.46),
  ('CCGAGTAGGTTAAGAGGGGGCATTCAGTGCGAAT', 4.47),
  ('CGTCCAAGGTCAGAGAGGTCATTGAATGCCGAGT', 2.72),
  ('ATTTGTAGGTTATCGGGTCATTCAGTTTGCGCAT', 6.74),
  ('CCTACTGGGCCAAGGTCATTGAGCAGTCAAAGCA', 3.78),
  ('CCTAGATGGTCAGGAGGTCACACACCGGATATGA', 1.16),
  ('TCTAGCAGGCCATAGGGTCACTCAAGAGGTACGG', 1.23),
  ('TCGAGTAGGTTACGGGGGCATTTAGGGATGAAGA', 5.1),
  ('CTCTGTAGGTTAAGGGGGTCATTCAGTTTGAAAG', 5.92),
  ('ATCTCTAGGTAAAGGTCAGTGAAAGATCGATAGA', 3.45),
  ('CCTTACGGGTCACTCCATGTTATAGCATCGGAGT', 2.24),
  ('ATACCAAGGTTATCGTGAGGTCGTTGATACTAAC', 0.718),
  ('CTATGTATGTTAAGGGGGTCATTCAGTTTGAAAG', 4.85);
